Provenance of the data: patent EP0279150A1

# MEASURED_TARGET: 5-HT₁
# TEST_SUMMARY: Receptor binding assay, ³H-5-HT
# CONDITION_LABEL: ³H-5-HT (5 nM) binding, rat brain (striatal) membranes, 10 minutes at 37°C; read-out: IC₅₀
OBSERVABLE: IC50
# do not omit the unit; it follows the number

Any idea what IC50 came out for CCCN(CCC)C1COc2cccc(O)c2C1 (stereo not shown) [3-di-propylamino-5-hydroxychroman, 3-dipropylamino-5-hydroxychroman] on 5-HT₁? 83 nM
